# ASPARTATE AMINOTRANSFERASE annotations
species on record: Rattus norvegicus; experiment: DrugMatrix - Regimen: Daily Repeat; type: toxicity, organism-based, Sprague-Dawley; design: regimen Daily Repeat, gender Male, age 6-8 weeks; conditions: in vivo, po, 0 mg/kg, 72 h, tissue Plasma, route oral GAVAGE, dose level Control, time 3 day, […]
Use u/L as the unit, but write only the number.

According to the records, this molecule CC(C)(C)NC(=O)[C@H]1CC[C@H]2[C@@H]3CC[C@H]4NC(=O)C=C[C@]4(C)[C@H]3CC[C@]12C [FINASTERIDE] displays ASPARTATE AMINOTRANSFERASE of 101.33

According to the records, this molecule Clc1ccc(COC(Cn2ccnc2)c2ccc(Cl)cc2Cl)cc1 (centres undefined) displays ASPARTATE AMINOTRANSFERASE of 101

According to the records, this molecule COc1cc(N)c(Cl)cc1C(=O)NC1CCN(CCCOc2ccc(F)cc2)CC1OC (centres undefined) [CISAPRIDE] displays ASPARTATE AMINOTRANSFERASE of 87.5

According to the records, this molecule CO[C@H]1/C=C/O[C@@]2(C)Oc3c(C)c(O)c4c(O)c(c(/C=N/N5CCN(C6CCCC6)CC5)c(O)c4c3C2=O)NC(=O)/C(C)=C\C=C\[C@H](C)[C@H](O)[C@@H](C)[C@@H](O)[C@@H](C)[C@H](OC(C)=O)[C@@H]1C displays ASPARTATE AMINOTRANSFERASE of 85.17
